Compiled literature IC50, tested on UniProt:P42336.

Worked cases, IC50 given:
Cc1nc2ccc(-c3ccc4c(c3)CN(C(=O)N3CCC(Cc5ccccc5)C3)CCO4)cc2[nH]1 (stereo not drawn): 0.5 to 1 µM
Cc1nc2ccc(-c3ccc4c(c3)CN(c3ncnc(C)c3CC(C)C)CCO4)cc2[nH]1: 1 to 2 µM

Switching to the query record.
(Q) Dear colleague, I am looking for the recorded IC50 of the following compound: c1cc(-c2ccnc3ccc(-c4nc5ncncc5[nH]4)cc23)ccn1
(A) 1 µM

###

Below, IC50 values reported for PIK3CA (human) (UniProt P42336) across several publications.

The examples below pair each entry with its known result.
Cn1cc(/C=C2\Oc3cccc(O)c3C2=O)c2c(N3CCC(C(=O)N4CC5CCC(C4)O5)CC3)ccnc21: 51 nM
CCNC(=O)c1cnc2ccc(-c3ccc4oc(N)nc4c3)cn12: < 100 nM
CC(C)CCC(=O)Nc1cccc(-c2cnc3c(N4CCOCC4)nc(-c4cnc(N)nc4)nc3c2)c1: < 50 nM
Nc1n[nH]c2cc(-c3ccc4ncc(C(=O)N5CCOCC5)n4c3)ccc12: > 10000 nM
Nc1nc2ccc(-c3cc(F)c4oc(N)nc4c3)cc2o1: < 1000 nM
CC(C)Cn1c(N2CCN(C(=O)C[C@@H](C)O)CC2)nc2c(N3CCOCC3)nc(-c3cnc(N)nc3)nc21: < 10 nM
CN1Cc2cc(Nc3nc(Nc4ccc(NC(=O)Nc5cccnc5)cc4)nc4c3cnn4C)ccc2C1=O: 6 nM
C[C@H](O)C(=O)N1CCC(c2nnc3cnc4ccc(-c5ccc6nc(N)sc6c5)cc4n23)CC1: < 100 nM
CC(=O)Nc1ccc(F)c(-c2cnc3c(N4CCOCC4)nc(-c4cnc(N)nc4)nc3c2)c1F: < 50 nM

// moving on: another record for IC50
(Q) Write down the reported IC50 of C[C@H]1COCCN1c1nc(N2CCOCC2)nc2[nH]c(-c3cc(CO)ccc3Cl)nc12 , test system: PIK3CA (human) (UniProt P42336).
(A) 720 nM
